# SUBJECT_OF_TEST: UniProt P25095
# Sequence (P25095 1-359): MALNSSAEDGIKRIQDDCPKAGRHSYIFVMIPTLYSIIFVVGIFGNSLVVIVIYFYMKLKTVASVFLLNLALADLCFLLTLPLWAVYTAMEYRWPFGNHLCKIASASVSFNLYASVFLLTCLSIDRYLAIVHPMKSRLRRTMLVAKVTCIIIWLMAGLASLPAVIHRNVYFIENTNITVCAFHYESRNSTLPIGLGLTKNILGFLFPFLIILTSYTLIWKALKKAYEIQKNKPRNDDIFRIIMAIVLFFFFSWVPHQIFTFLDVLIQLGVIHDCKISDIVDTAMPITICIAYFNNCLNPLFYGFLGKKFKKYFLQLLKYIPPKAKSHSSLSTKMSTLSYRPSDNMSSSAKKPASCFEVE
# EXPERIMENT_SUMMARY: beta-arrestin2 recruitment assay (PathHunter), rat AT1aR
# Format: cell-based
# STUDY_CONDITIONS: 1 h, read-out: Span (relative to hAngII)
Where a SMILES comes first, the peptide text is derived from it. [ ]: non-standard residue; d: D form. Ac5c = NC1(C(=O)O)CCCC1; Sar = CNCC(=O)O
For each entry below, report its Emax value.

State the recorded Emax for this entry: CNCC(=O)N[C@@H](CCCNC(=N)N)C(=O)N[C@H](C(=O)N[C@@H](Cc1ccc(O)cc1)C(=O)N1CCC[C@H]1C(=O)N[C@@H](Cc1c[nH]cn1)C(=O)N1CCC[C@H]1C(=O)N[C@@H](Cc1ccccc1)C(=O)O)C(C)C [SEQ ID NO: 10, Sar-Arg-Val-Tyr-Pro-His-Pro-Phe] (H-[Sar]RVYPHPF-OH; N-terminus and C-terminus assumed)
> 105%

Could you do the same for CNCC(=O)N[C@@H](CCCNC(=N)N)C(=O)N[C@H](C(=O)N[C@@H](Cc1ccc(O)cc1)C(=O)NC1(C(=O)N[C@@H](Cc2c[nH]cn2)C(=O)N2CCC[C@H]2C(=O)N[C@@H](CO)C(=O)O)CCCC1)C(C)C [SEQ ID NO: 22, Sar-Arg-Val-Tyr-cyPen-His-Pro-Ser] (H-[Sar]RVY[Ac5c]HPS-OH) , please?
< 105%
